Tested on: CAKI-1
Assay: NCI tumour cell line growth inhibition, 48 h
Calls of active or inactive are those of the source. Cut-off read from the data, not from the text of the source: active = GI50 up to about 1.1 µM and inactive = higher.
Form entry, call: pick from Yes (active), No (inactive)

For orientation, consider the following solved cases.
Task: Assay outcome for `CN(C)CN1CSC(=S)N(CN(C)C)C1` : what was it?
Result: No

Task: Another: `C[N+](C)(CCNc1ccc(NCC[N+](C)(C)Cc2ccc([N+](=O)[O-])cc2)c2c1C(=O)c1c(O)ccc(O)c1C2=O)Cc1ccc([N+](=O)[O-])cc1`
Result: No

Task: What do you get for CCC1(O)C(=O)OCc2c1cc1n(c2=O)Cc2cc3c(N)cccc3nc2-1 (stereo not given) [RS-9-Aminocamptothecin] ?
Result: Yes

---
Task: # outcome recorded in this test, key = `COc1c(Br)cc(CC(N)=O)c(O)c1Br`
Result: No

Task: And for `Cc1nc(NC(=S)NC(=O)c2ccc(Cl)c(Cl)c2)sc1C(=O)/C=C/c1ccccc1[N+](=O)[O-]` ?
Result: No

====

System: NCI-H460
Test: NCI tumour cell line growth inhibition, 48 h
Calls of active or inactive are those of the source. Rule as the data show it: active = GI50 up to about 1.1 µM and inactive = higher.
OUTCOME MEASURE: GI50

Task: Can you share its GI50? I mean this molecule: Cc1cc(CC(O)c2ccc(Cl)c(Cl)c2)nc(O)n1 (stereo not given)
Result: 34.8 µM (inactive)

====

System: U-251
Assay: NCI tumour cell line growth inhibition, 48 h
Active and inactive are the calls of the source. Cut-off read from the data, not from the text of the source: active = GI50 up to about 1.1 µM and inactive = higher.
OUTCOME MEASURE: GI50

Recorded GI50, per entry:
Task: U-251 / GI50 / `Oc1ccc2ccccc2c1/N=N\c1cccc2ccccc12` : value?
Result: > 100 µM (inactive)

Task: Ok, now `COC(=O)c1scc(N)c1-n1ccc(=O)[nH]c1=O`
Result: > 100 µM (inactive)

Task: Moving on to COC(=O)/C=C1/CCC(C(=O)OC)N1 (stereo unspecified)
Result: > 100 µM (inactive)

Task: Could you do the same for COC(=O)C(c1ccc(OC)cc1)N1C(=O)[C@@H](NC(=O)c2ccccc2)[C@H]1[C@@H](C)O (stereo partly specified) , please?
Result: > 100 µM (inactive)

Task: Then CCN(CC)CCC1CCCCN1CC(=O)N1c2cc(Cl)ccc2NC(=O)CC1C (stereo unspecified) ?
Result: > 100 µM (inactive)

Here's the next entry for you.
Task: Request: GI50, test system U-251, entry Cc1[nH]c2c(C)cccc2c1C1Cc2ccccc2N1 (stereo unspecified)
Result: 20 µM (inactive)

====

Tested on: UO-31
Experiment: NCI tumour cell line growth inhibition, 48 h
Active and inactive are the calls of the source. Cut-off read from the data, not from the text of the source: active = GI50 up to about 1.1 µM and inactive = higher.
Select the matching outcome among active, inactive

Consider the following illustrative entries.
Task: Hi, sorry to bother you, what did the test record for `COC(=O)C1=C(c2cc(OC)c(OC)c(OC)c2)O[C@H](c2ccc3c(c2)OCO3)[C@H]1COC(C)=O` ?
Result: inactive

Task: Try this molecule too: COC(=O)[C@H]1CC(=O)C=C2CCCC21 (stereo not given in full)
Result: inactive

Task: And the next one, CCC1(O)C(=O)OCc2c1cc1n(c2=O)Cc2cc3c(N)cccc3nc2-1 (stereo not given) ?
Result: active

Task: Also need `Cc1oncc1/N=C1\C=C(O)C(=O)c2ccccc21` , thanks.
Result: inactive

Note: attention shifts to another entry.
Task: What did the test return for `Cc1cc(S(=O)(=O)Nc2nnc3c(C(F)(F)F)cc(Cl)cn23)c(S)cc1Cl` ?
Result: inactive

====

Tested on: U-251
Assay: NCI tumour cell line growth inhibition, 48 h
Active and inactive are the calls of the source. Rule as the data show it: active = GI50 up to about 1.1 µM and inactive = higher.
OUTCOME MEASURE: GI50

Study these solved cases before continuing.
Task: For `COc1c(Br)cc(CC(N)=O)c(O)c1Br` , what is its reported GI50?
Result: > 100 µM (inactive)

Task: Also, `CN(/N=C1\C(=O)Nc2ccccc21)c1ccccc1` please.
Result: 74.8 µM (inactive)

Task: And `O=S(=O)(N1CCCCN(S(=O)(=O)C(F)(F)F)CCCN(S(=O)(=O)C(F)(F)F)CCCN(S(=O)(=O)C(F)(F)F)CCCCN(S(=O)(=O)C(F)(F)F)CCCN(S(=O)(=O)C(F)(F)F)CCC1)C(F)(F)F` ?
Result: 21.6 µM (inactive)

Task: Repeat for the following compound: CCOP(=O)(OCC)C1CC(O)CN1OC(=O)C(C)(C)C (stereo unspecified)
Result: > 100 µM (inactive)

Task: Request: `CN(CCCN(C)CCc1ccc(Cl)c(Cl)c1)CCCN1CCCC1`
Result: 1.92 µM (inactive)

Task: Same for CCC1(O)C(=O)OCc2c1cc1n(c2=O)Cc2cc3c(N)cccc3nc2-1 (stereo unspecified)
Result: < 0.0115 µM (active)

Task: Check `CSc1[nH]nc(N)c1C(=O)Nc1ccc(C)cc1` too.
Result: 50.2 µM (inactive)

Task: Consider next the compound CCOC(=O)c1ccc(NC2Oc3cc4c(cc3C(c3cc(OC)c(OC)c(OC)c3)C2C)OCO4)cc1 (stereo unspecified) in the same way.
Result: 0.433 µM (active)

New cases:
Task: Returns the measured GI50 for the input compound. Input: CCOC(=O)CCC(C(=O)OCC)n1nc2ccc(Nc3c(C)[n+]([O-])c4cc(Cl)ccc4[n+]3[O-])cc2n1 (stereo unspecified)
Result: > 100 µM (inactive)

Task: What about `COc1ccc2c(c1)CCc1cc(C(N)=O)c3nnnn3c1-2` ?
Result: 23.6 µM (inactive)

Task: And the next one, `COc1cc(CNC2=NCCC2)cc(OC)c1OC` ?
Result: 53.3 µM (inactive)

====

# GI50 per record follows
System: COLO 205
Experiment: NCI tumour cell line growth inhibition, 48 h
Calls of active or inactive are those of the source. No stated cut-off is given here; in the data, active = GI50 up to about 1.1 µM and inactive = higher.

Task: // GI50 lookup, key: `O=c1[nH]c(=O)n(Cc2ccccc2CO)cc1Sc1ccccc1`
Result: 37.2 µM (inactive)

Continuing:
Task: Can you look up the measured GI50 of CCOC(=O)C(O)(NC(=O)NC(O)(C(=O)OCC)C(F)(F)F)C(F)(F)F (stereo unspecified) for me?
Result: > 100 µM (inactive)

Task: Next up: CC1(C)CC(=O)C2=C(C1)OC1=C(CC(C)(C)CC1=O)C2c1ccccc1[N+](=O)[O-] (stereo unspecified)
Result: > 100 µM (inactive)

====

Listed below: GI50 values for each entry.
System: OVCAR-3
Assay: NCI tumour cell line growth inhibition, 48 h
Activity calls are given as the source filed them. No stated cut-off is given here; in the data, active = GI50 up to about 1.1 µM and inactive = higher.

For orientation, consider the following solved cases.
Task: Kindly state the measured GI50 obtained for `C[N+](C)(CCNc1ccc(NCC[N+](C)(C)Cc2ccc([N+](=O)[O-])cc2)c2c1C(=O)c1c(O)ccc(O)c1C2=O)Cc1ccc([N+](=O)[O-])cc1` with OVCAR-3.
Result: > 50 µM (inactive)

Task: Same question for `C[C@]12CC[C@H]3[C@@H](CCC4=CC(=O)CC[C@@]43C)[C@@H]1CC[C@@H]2C(=O)COS(=O)(=O)c1ccc(Br)cc1` please.
Result: 6.43 µM (inactive)

Task: Also, `O=c1[nH]nc(Cc2ccc(Cl)cc2)n1CCO` please.
Result: > 100 µM (inactive)

Task: Likewise for `COc1cc2c(cc1Cl)[n+]([O-])c(C#N)c(N1CCN(c3ccc([N+](=O)[O-])cc3)CC1)[n+]2[O-]` ?
Result: 52.6 µM (inactive)

Task: What do you get for `O=C(CCc1nnc2s/c(=C\c3ccc(Cl)cc3Cl)c(=O)n12)Nc1cc(Cl)c(Cl)cc1Cl` ?
Result: > 10 µM (inactive)

Others:
Task: Hi! What's the reported GI50 for `Nc1n[c-](N)[n+](=O)c(N)c1NCO` on OVCAR-3?
Result: > 100 µM (inactive)

Task: Please answer likewise for `CCN(CC)CCOCCOCC1(c2ccc(Cl)c(Cl)c2)CCCCC1`
Result: 8.67 µM (inactive)

Task: Same for CC(C)(C)[Si](C)(C)OCC1OC(n2ccc(N)nc2=O)C(O[Si](C)(C)C(C)(C)C)C1O[Si](C)(C)C(C)(C)C (stereo not drawn)
Result: 1.73 µM (inactive)

====

System: SF-295
Experiment: NCI tumour cell line growth inhibition, 48 h
Active and inactive are the calls of the source. Cut-off read from the data, not from the text of the source: active = GI50 up to about 1.1 µM and inactive = higher.
Result category, one only: label 1 for active, label 0 for inactive

Task: Could you please tell me the result logged for `O=C(NNC(=S)NC1CCCCC1)c1csc(NC(=S)NC2CCCCC2)n1` in this assay?
Result: label 0

Task: Same thing, different compound: O=C1CCCC2C(O)CCC[C@H]12 (some centres undefined)
Result: label 0

More entries:
Task: Test call, this compound: CCOC(=O)c1ccc(NC2Oc3cc4c(cc3C(c3cc(OC)c(OC)c(OC)c3)C2C)OCO4)cc1 (centres undefined)
Result: label 1

Task: // next record `O=c1[nH]c(=O)c2c([nH]1)[nH]c1ccccc12`
Result: label 0

Task: How about this compound: CC(C)(C)[Si](C)(C)OCC1OC(n2ccc(N)nc2=O)C(O[Si](C)(C)C(C)(C)C)C1O[Si](C)(C)C(C)(C)C (centres undefined)
Result: label 0

Task: Check CC1(C)CC(=O)C2=C(C1)OC1=C(CC(C)(C)CC1=O)C2c1ccccc1[N+](=O)[O-] (centres undefined) too.
Result: label 0

Task: Record: CCOP(=O)(OCC)C1CC(O)CN1OC(=O)C(C)(C)C (centres undefined)
Result: label 0

Task: Again, but for `CC(=O)O[C@H]1CC[C@@]2(C)C(=CC[C@@H]3[C@@H]2CC[C@]2(C)c4nc(N)c(C#N)cc4C[C@@H]32)C1`
Result: label 0

Task: For CCN(CC)CCC1CCCCN1CC(=O)N1c2cc(Cl)ccc2NC(=O)CC1C (centres undefined) then?
Result: label 0

Values compiled from ChEMBL document CHEMBL1201862.
